# reported 100 nM FACS (MFI Ratio); entries follow
molecular target: T1, neuropilin-1 (NRP1) on HEK293 cells overexpressing NRP1 (UniProt O14786 22-923, limits assumed); test: flow cytometry, HEK293-NRP1 vs HEK293
T1 construct: whole, on cells
// print number alone

# example entries with known answers
Kindly note the recorded 100 nM FACS (MFI Ratio) for NRP1-78 (VHH) VHH: EVQLVESGGGLVQPGGSLRLSCAASGRTFRSYPMGWFRQAPGKEREWVASITSSATAYADSVKGRFTISADNSKNTAYLQMNSLKPEDTAVYYCALGPVRRSRLEWGQGTLVTVSS , which is 3.6

Kindly note the recorded 100 nM FACS (MFI Ratio) for NRP1-66 (VHH) VHH: EVQLVESGGGLVQPGGSLRLSCAASGRTFRPYRMGWFRQAPGKERELVAAITSGTHKDYADSVKGRFTISADNSKNTAYLQMNSLKPEDTAVYYCAADYSGSYTSLWSRPERLWGQGTLVTVSS , which is 1.1

Kindly note the recorded 100 nM FACS (MFI Ratio) for NRP1-35 (VHH) VHH: EVQLVESGGGLVQPGGSLRLSCAASGSIFSFNAMGWFRQAPGKERELVASITPGGNINYADSVKGRFTISADNSKNTAYLQMNSLKPEDTAVYYCARDVEGGWYGLSYGMDVWGQGTLVTVSS , which is 2.9

Next:
Kindly note the recorded 100 nM FACS (MFI Ratio) for NRP1-80 (VHH) VHH: EVQLVESGGGLVQPGGSLRLSCAASGSIDRINAMGWFRQAPGKEREFVASIWWTFDAPYYADSVKGRFTISADNSKNTAYLQMNSLKPEDTAVYYCATWTTTWGRNRDWGQGTLVTVSS , which is 6.9
